Test system: MGC-803
EXPERIMENT DESCRIPTION: Antiproliferative activity against human MGC-803 cells
Type: functional, cell-based

| GIVEN SMILES | IC50 |
| --- | --- |
| CNC(=O)c1ccccc1Nc1nc(Nc2ccc(NC(=O)CCCCCCC(=O)NO)cc2)ncc1Cl | 182 nM |

---

Tested on: HCT-116
EXPERIMENT DESCRIPTION: Cytotoxicity against human HCT-116 cells
Assay type: functional, cell-based

| MOLECULE | IC50, µM |
| --- | --- |
| COc1cc2nc(-c3ccc(C(F)(F)F)cc3)cc(OCCCNCC3CCCO3)c2cc1OC (centres undefined) | 5.68 |
| COc1cc2nc(-c3ccc(C(F)(F)F)cc3)cc(OCCCNC3CCN(C)CC3)c2cc1OC | 3.28 |
| Clc1ccc(-c2cc(OCCCN3CCOCC3)c3cc(-c4ccco4)ccc3n2)cc1 | 2.96 |
| COc1cc2nc(-c3ccc(C(F)(F)F)cc3)cc(OCCCN3CCN(C)CC3)c2cc1OC | 3.09 |

---

EXPERIMENT DESCRIPTION: Half life in human at 20 mg/kg, po
Format: ADME, organism-based
ASSAY SETUP: in vivo
READOUT NAME: half-life

| GIVEN SMILES | TEST VALUE |
| --- | --- |
| COc1cc(C(=O)NC2CCNCC2)ccc1Nc1nc(Oc2cccc3c2C(=O)CC3)c2cc[nH]c2n1 | 4.08 h |

---

EXPERIMENT DESCRIPTION: Half life in human plasma
Type: ADME, cell-free
READOUT NAME: half-life

| MOLECULE | READOUT NAME | TEST VALUE |
| --- | --- | --- |
| CN(c1ncccc1CNc1nc(Nc2ccc(N3CCN(CCCCCCC(=O)NCCNc4cccc5c4C(=O)N(C4CCC(=O)NC4=O)C5=O)CC3)cc2)ncc1C(F)(F)F)S(C)(=O)=O (stereo unspecified) | half-life | > 3.25 h |

---

System: KYSE-450
EXPERIMENT DESCRIPTION: Antiproliferative activity against human KYSE-450 cells
Type: functional, cell-based
pIC50: −log10 of the molar value.

| GIVEN SMILES | pIC50 |
| --- | --- |
| CNC(=O)c1ccccc1Nc1nc(Nc2ccc(NC(=O)CCCCCCC(=O)NO)cc2)ncc1Cl | 6.21 |
